IC50 values recorded for β-secretase (BACE-1) (Homo sapiens, UniProt P56817)
measured_attribute: IC50 (µM)

Sample answers from the record:
COc1ccc(NNC(=O)CC[C@H](N)C(=O)O)cc1 ... 25
NC(CCC(=O)NNc1cccc(C(F)(F)F)c1)C(=O)O (stereo not shown) ... 0.33
NC(CCC(=O)NNc1ccc(OC(F)(F)F)cc1)C(=O)O (stereo not shown) ... 9.89
COc1ccccc1NNC(=O)CC[C@H](N)C(=O)O ... 7.97
NC(CCC(=O)NNc1ccccc1C(F)(F)F)C(=O)O (stereo not shown) ... 11.6

[P] NC(CCC(=O)NNc1cccc2ccccc12)C(=O)O (stereo not shown)
[Q] N[C@@H](CCC(=O)NNc1ccccn1)C(=O)O
When the recorded IC50 values are compared, which is smaller: that of P or that of Q ? Reply briefly: the label of your chosen item.
Q
(Q: 0.32 µM, P: 0.66 µM)

Attribution: paper PMC12073177
